- experimental system: Vascular endothelial growth factor receptor 2 (Homo sapiens, UniProt P35968)
- Sequence (P35968 whole entry, the tested form may be a part): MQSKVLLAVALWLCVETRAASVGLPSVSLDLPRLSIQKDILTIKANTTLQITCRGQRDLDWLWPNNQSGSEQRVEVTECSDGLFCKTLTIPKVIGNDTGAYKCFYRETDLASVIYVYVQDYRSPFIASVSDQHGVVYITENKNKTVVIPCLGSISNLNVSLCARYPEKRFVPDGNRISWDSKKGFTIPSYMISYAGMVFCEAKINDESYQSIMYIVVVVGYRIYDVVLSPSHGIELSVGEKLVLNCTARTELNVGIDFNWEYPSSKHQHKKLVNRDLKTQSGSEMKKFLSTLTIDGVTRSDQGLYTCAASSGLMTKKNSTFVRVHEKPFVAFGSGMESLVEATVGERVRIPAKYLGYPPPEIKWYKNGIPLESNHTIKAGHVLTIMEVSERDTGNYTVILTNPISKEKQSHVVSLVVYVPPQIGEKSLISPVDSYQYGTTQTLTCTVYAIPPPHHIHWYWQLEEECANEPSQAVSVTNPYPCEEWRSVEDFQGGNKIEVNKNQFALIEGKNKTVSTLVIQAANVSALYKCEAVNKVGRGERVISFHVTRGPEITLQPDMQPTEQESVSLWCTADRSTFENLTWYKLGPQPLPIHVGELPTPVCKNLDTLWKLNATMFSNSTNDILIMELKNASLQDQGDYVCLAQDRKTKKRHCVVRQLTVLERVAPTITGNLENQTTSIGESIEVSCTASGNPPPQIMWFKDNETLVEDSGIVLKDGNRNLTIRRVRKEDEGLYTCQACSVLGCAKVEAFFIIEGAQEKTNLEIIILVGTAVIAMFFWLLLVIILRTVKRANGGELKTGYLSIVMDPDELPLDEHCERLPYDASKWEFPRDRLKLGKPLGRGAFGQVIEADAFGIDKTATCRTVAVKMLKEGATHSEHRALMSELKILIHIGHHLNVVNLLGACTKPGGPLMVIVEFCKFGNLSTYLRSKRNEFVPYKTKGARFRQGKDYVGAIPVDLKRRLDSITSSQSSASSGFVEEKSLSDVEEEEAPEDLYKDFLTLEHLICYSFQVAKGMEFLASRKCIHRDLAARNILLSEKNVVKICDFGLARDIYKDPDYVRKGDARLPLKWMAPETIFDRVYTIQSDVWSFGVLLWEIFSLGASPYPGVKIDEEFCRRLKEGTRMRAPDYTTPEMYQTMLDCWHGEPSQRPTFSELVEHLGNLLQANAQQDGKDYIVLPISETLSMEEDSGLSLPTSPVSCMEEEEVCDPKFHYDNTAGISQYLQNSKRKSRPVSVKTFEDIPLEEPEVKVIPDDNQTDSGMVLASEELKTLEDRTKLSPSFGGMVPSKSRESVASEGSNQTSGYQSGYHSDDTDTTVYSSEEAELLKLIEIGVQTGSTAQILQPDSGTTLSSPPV
- protocol notes: Inhibition of recombinant human His-tagged KDR cytoplasmic domain (789 to 1356 residues) expressed in baculovirus expression system using Z'-LYTE-Tyr1 as substrate measured after 1 hr by Z'-LYTE assay
quantity: pIC50
Interpret pIC50 as the negative base-10 log of the concentration measured in mol/L.

Data request: // fetch pIC50 given entry COc1ccc(Nc2ncc3c(n2)-c2ccccc2SC3)cc1OC
Data returned: 6.96

* * *

- protocol notes: Growth inhibition of HUVEC after 72 hrs by trypan blue assay
- Type: cell-based
- measurement conditions: human, HUVEC cells
quantity: GI50 at 72 h (µM)
Field format: number, assumed µM, no unit text.

Examples with answers:
{"mol": "COc1cccc(Nc2ncc3c(n2)-c2ccc(OC)cc2SC3)c1", "GI50 at 72 h, µM": 2.49}
{"mol": "COc1cccc(Nc2ncc3c(n2)-c2ccccc2SC3)c1", "GI50 at 72 h, µM": 0.8}
{"mol": "FC(F)(F)c1cccc(Nc2ncc3c(n2)-c2ccccc2SC3)c1", "GI50 at 72 h, µM": 5.02}

Data request: Report measured GI50 at 72 h; entry is Clc1cccc(Nc2ncc3c(n2)-c2ccccc2SC3)c1
Data returned: 7.13

Data request: Specify GI50 at 72 h for COc1ccc2c(c1)SCc1cnc(Nc3cccc(Br)c3)nc1-2 and stop.
Data returned: 1.89

Data request: Give GI50 at 72 h for the following compound: COc1cc(Nc2ncc3c(n2)-c2ccc(Cl)cc2SC3)cc(OC)c1OC
Data returned: 2.54

Data request: // fetch GI50 at 72 h given entry COc1cccc(Nc2ncc3c(n2)-c2ccc(Cl)cc2SC3)c1
Data returned: 14.2

Data request: Write down GI50 at 72 h measured for item COc1ccc(Nc2ncc3c(n2)-c2ccccc2SC3)cc1OC
Data returned: 1.5

Data request: Name the recorded GI50 at 72 h of the compound listed here: COc1cc(Nc2ncc3c(n2)-c2ccccc2SC3)cc(OC)c1OC
Data returned: 1.99

Data request: Please report GI50 at 72 h for the following compound: Clc1ccc2c(c1)SCc1cnc(Nc3cccc(Br)c3)nc1-2
Data returned: 7.11

Data request: Quick one: give measured GI50 at 72 h for COc1ccc2c(c1)SCc1cnc(Nc3cccc(Cl)c3)nc1-2
Data returned: 11.2

Data request: Please supply the value of reported GI50 at 72 h for the item Fc1cccc(Nc2ncc3c(n2)-c2ccc(Cl)cc2SC3)c1
Data returned: 18.2

Data request: Given the compound Clc1cccc(Nc2ncc3c(n2)-c2ccc(Cl)cc2SC3)c1 , write its reported GI50 at 72 h.
Data returned: 16.5

Data request: Please list GI50 at 72 h recorded for the compound Brc1cccc(Nc2ncc3c(n2)-c2ccccc2SC3)c1
Data returned: 7

Data request: # return recorded GI50 at 72 h for entry Fc1cccc(Nc2ncc3c(n2)-c2ccccc2SC3)c1
Data returned: 4.51

Data request: # return recorded GI50 at 72 h for entry COc1ccc2c(c1)SCc1cnc(Nc3cc(OC)c(OC)c(OC)c3)nc1-2
Data returned: 3.71

Data request: State its GI50 at 72 h for this compound: COc1ccc2c(c1)SCc1cnc(Nc3ccc(OC)c(OC)c3)nc1-2
Data returned: 10.8

Data request: State its GI50 at 72 h for this compound: COc1ccc(Nc2ncc3c(n2)-c2ccc(Cl)cc2SC3)cc1OC
Data returned: 2.53

Data request: Indicate the recorded GI50 at 72 h value for this compound: COc1ccc2c(c1)SCc1cnc(Nc3cccc(C(F)(F)F)c3)nc1-2
Data returned: 4.55

Data request: Please look at this compound and report its GI50 at 72 h: FC(F)(F)c1cccc(Nc2ncc3c(n2)-c2ccc(Cl)cc2SC3)c1
Data returned: 10.5

Data request: Retrieve GI50 at 72 h measured for COc1ccc2c(c1)SCc1cnc(Nc3cccc(F)c3)nc1-2 and print it.
Data returned: 11.5
